Source: patent US20060062761A1

binders and their reported IC50
- Test target: HLA-DR DRB1*0101 on fixed HOM-2 cells (human)
- Assay name: competition
- Applied conditions: modification not given
Answer in µM, number only, no unit symbol.

Binder	Unit	IC50
AQMRRISLFSCLKDR [7]	µM	150
PLMKEDSILAVRKYF [37]	µM	85

Exercise: Quick one: give measured IC50 for VVRAEIMRSFSLSTN [48]
Solution: 25

Exercise: Quick one: give measured IC50 for RRISLFSCLKDRHDF [8]
Solution: 180

Exercise: Quick one: give measured IC50 for TETPLMKEDSILAVR [36]
Solution: 25

Exercise: Quick one: give measured IC50 for AVRKYFQRITLYLKE [40]
Solution: 95

Exercise: Quick one: give measured IC50 for SILAVRKYFQRITLY [39]
Solution: 100

Exercise: Quick one: give measured IC50 for QFQKAETIPVLHEMI [16]
Solution: 350

Exercise: Quick one: give measured IC50 for AEIMRSFSLSTNLQE [49]
Solution: 15
